Source listed as paper PMC9911399.

Target: T1, RBFOX1 RRM (Homo sapiens, UniProt Q9NWB1 109-208)
T1 sequence: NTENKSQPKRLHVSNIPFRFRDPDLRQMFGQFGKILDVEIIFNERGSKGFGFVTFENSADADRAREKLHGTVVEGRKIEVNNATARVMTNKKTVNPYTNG
Assay: EMSA; HiTS-Eq, 1 nM pool, 10 min; buffer printed only for the single-RNA assays: 10 mM Tris pH 7.5, 150 mM NaCl, 3.4 mM EDTA, 0.001% NP-40, 30 C
Conditions: tags: His6 N-terminal (pET28a); label: 5' 32P
Over roughly 16,000 sequences, “ka relative to ugcaugu” has its median near 0.0091; the highest 2% begin near 0.032. This is one part of a sample in which the highest values are shown more often than they occur.
Reported binding signal by item:

UUGGUGC (DNA:RNA) RNA: GGGAGACCGGAAUUCAGAUUGUCCUUGGUGCUUAAAUCCCGUCGUAGCCACCA DNA 1: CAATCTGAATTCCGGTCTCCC DNA 2: TGGTGGCTACGACGGGATT : 0.0277 KA relative to UGCAUGU
UGAUUGG (DNA:RNA) RNA: GGGAGACCGGAAUUCAGAUUGUCCUGAUUGGUUAAAUCCCGUCGUAGCCACCA DNA 1: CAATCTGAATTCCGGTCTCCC DNA 2: TGGTGGCTACGACGGGATT : 0.0223 KA relative to UGCAUGU

Next binder, binding signal to be filled in.
// query binding signal value for entry CUAAAAA (DNA:RNA) RNA: GGGAGACCGGAAUUCAGAUUGUCCCUAAAAAUUAAAUCCCGUCGUAGCCACCA DNA 1: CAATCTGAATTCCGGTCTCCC DNA 2: TGGTGGCTACGACGGGATT
0.000629 KA relative to UGCAUGU
